- EXPERIMENT NOTES: Ratio of unbound fraction in CD1 mouse brain to plasma at 50 mg/kg, po after 6 hrs by LC-MS/MS analysis
- Format: ADME, organism-based
- ASSAY SETUP: read-out: K(p,uu,brain)
REPORTED ENDPOINT: Kp uu at 6 h

Ask: Find the recorded Kp uu at 6 h belonging to `COC1(c2sc3c(N4CCOCC4)nc(-c4cnc(N)nc4)nc3c2C)COC1` and report it.
Reply: 0.4

---

- EXPERIMENT NOTES: Ratio of unbound fraction in CD1 mouse brain to plasma at 25 mg/kg, po after 6 hrs by LC-MS/MS analysis
- Type: ADME, organism-based
- ASSAY SETUP: read-out: K(p,uu,brain)
REPORTED ENDPOINT: Kp uu at 6 h
I'd appreciate a reply containing only the number, no unit.

Ask: Find the recorded Kp uu at 6 h belonging to `COC(C)(C)c1cc2nc(-c3cnc(N)nc3)nc(N3CCOCC3)c2s1` and report it.
Reply: 0.4

---

- EXPERIMENT NOTES: AUC in CD1 mouse at 25 mg/kg, po
- Format: ADME, organism-based
- ASSAY SETUP: in vivo
REPORTED ENDPOINT: AUC (µM·h)
Unit µM·h implied. Number only.

Ask: Find the recorded AUC belonging to `CC1(C)OCCn2c1nc1c(N3CCOCC3)nc(-c3cnc(N)nc3)nc12` and report it.
Reply: 47
